- Measured On: von Hippel-Lindau disease tumor suppressor/Son of sevenless homolog 1 (Homo sapiens) (UniProt Q07889+P40337)
- Sequence (P40337 whole entry, looked up, one chain of several): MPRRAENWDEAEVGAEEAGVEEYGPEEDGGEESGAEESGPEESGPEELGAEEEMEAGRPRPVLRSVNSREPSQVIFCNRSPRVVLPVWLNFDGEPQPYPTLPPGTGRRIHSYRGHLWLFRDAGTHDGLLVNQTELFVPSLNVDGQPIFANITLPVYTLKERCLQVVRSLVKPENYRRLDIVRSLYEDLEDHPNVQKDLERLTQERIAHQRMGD
- Assay Explanation: PROTAC activity at VHL/SOS1 in human NCI-H358 cells assessed as induction of SOS1 protein degradation at 1.0 uM incubated for 24 hrs by Immunoblot analysis relative to control
- Format: cell-based
Readout Name: Activity (%)

Smiles Representation	Result Unit	Activity
COc1cc2nc(C)nc(N[C@H](C)c3cc(N)cc(C(F)(F)F)c3)c2cc1C1CCN(C(=O)C2CCN(CCC(=O)N[C@H](C(=O)N3C[C@H](O)C[C@H]3C(=O)N[C@@H](C)c3ccc(-c4scnc4C)cc3)C(C)(C)C)CC2)CC1	%	22.6

a: COc1cc2nc(C)nc(N[C@H](C)c3cc(N)cc(C(F)(F)F)c3)c2cc1C1CCN(C(=O)CCCCCCCCCC(=O)N[C@H](C(=O)N2C[C@H](O)C[C@H]2C(=O)N[C@@H](C)c2ccc(-c3scnc3C)cc2)C(C)(C)C)CC1
b: COc1cc2nc(C)nc(N[C@H](C)c3cc(N)cc(C(F)(F)F)c3)c2cc1C1CCN(CCCCCC(=O)N[C@H](C(=O)N2C[C@H](O)C[C@H]2C(=O)N[C@@H](C)c2ccc(-c3scnc3C)cc2)C(C)(C)C)CC1
c: COc1cc2nc(C)nc(N[C@H](C)c3cc(N)cc(C(F)(F)F)c3)c2cc1C1CCN(C(=O)[C@H]2CC[C@H](C(=O)N[C@H](C(=O)N3C[C@H](O)C[C@H]3C(=O)N[C@@H](C)c3ccc(-c4scnc4C)cc3)C(C)(C)C)CC2)CC1
Exercise: Ascending by Activity, please. Your task in answering is to list the labels in the requested order.
Key: b, c, a

====

- Measured On: UniProtKB Q07889
- Sequence (Q07889 whole entry): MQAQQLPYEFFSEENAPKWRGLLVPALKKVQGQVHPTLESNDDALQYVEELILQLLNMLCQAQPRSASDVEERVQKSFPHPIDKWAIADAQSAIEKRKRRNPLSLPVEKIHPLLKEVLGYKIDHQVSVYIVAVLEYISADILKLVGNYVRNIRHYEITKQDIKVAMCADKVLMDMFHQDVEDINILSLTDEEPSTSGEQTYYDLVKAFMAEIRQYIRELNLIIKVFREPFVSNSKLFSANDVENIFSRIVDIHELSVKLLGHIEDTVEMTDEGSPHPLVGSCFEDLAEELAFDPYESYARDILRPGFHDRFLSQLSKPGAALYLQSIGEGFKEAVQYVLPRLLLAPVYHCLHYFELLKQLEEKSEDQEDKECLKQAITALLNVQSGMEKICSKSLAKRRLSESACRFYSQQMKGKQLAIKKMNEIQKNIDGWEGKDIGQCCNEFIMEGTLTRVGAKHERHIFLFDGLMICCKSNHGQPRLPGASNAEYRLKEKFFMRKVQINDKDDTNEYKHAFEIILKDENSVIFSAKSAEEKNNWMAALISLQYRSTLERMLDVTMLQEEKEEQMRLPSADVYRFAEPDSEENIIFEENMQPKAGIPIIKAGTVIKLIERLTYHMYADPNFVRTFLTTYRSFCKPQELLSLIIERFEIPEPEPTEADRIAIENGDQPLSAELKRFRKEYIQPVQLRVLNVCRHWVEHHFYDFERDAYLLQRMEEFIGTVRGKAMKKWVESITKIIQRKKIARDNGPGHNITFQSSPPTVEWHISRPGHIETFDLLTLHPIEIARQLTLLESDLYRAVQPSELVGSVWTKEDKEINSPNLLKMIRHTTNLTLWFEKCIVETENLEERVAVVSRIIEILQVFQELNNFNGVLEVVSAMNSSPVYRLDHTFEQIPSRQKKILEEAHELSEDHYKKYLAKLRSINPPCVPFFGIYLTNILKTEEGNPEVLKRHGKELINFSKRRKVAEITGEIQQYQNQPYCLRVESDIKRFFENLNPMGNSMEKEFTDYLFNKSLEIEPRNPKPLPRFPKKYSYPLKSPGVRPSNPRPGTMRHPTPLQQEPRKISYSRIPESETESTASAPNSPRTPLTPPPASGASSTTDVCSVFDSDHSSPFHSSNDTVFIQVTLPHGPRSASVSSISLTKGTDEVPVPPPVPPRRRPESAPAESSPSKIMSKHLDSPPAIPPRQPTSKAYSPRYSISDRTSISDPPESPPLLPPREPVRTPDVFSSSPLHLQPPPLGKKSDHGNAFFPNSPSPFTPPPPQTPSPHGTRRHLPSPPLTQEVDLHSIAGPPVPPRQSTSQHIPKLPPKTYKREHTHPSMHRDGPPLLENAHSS
- Assay Explanation: Binding affinity to GST-tagged human SOS1 (564 to 1049 residues) expressed in Escherichia coli BL21 (DE3) cells assessed as binary complex formation by measuring dissociation constant incubated for 15 mins by fluorescence polarization-based displacement assay
pKd: −log10 of the molar value.
Readout Name: pKd

A: COc1cc2nc(C)nc(N[C@H](C)c3cc(N)cc(C(F)(F)F)c3)c2cc1C1CCN(C(=O)CCOCCC(=O)N[C@H](C(=O)N2C[C@H](O)C[C@H]2C(=O)N[C@@H](C)c2ccc(-c3scnc3C)cc2)C(C)(C)C)CC1
B: COc1cc2nc(C)nc(N[C@H](C)c3cc(N)cc(C(F)(F)F)c3)c2cc1C1CCN(CCCCCCC(=O)N[C@H](C(=O)N2C[C@H](O)C[C@H]2C(=O)N[C@@H](C)c2ccc(-c3scnc3C)cc2)C(C)(C)C)CC1
Exercise: When their pKd values are compared, which is larger, A or B ? Respond with the label that goes with your answer.
Key: B

====

# key: entry, value: pIC50
- Tested on: PANC-1
- Assay Explanation: Antiproliferative activity against human PANC-1 cells harboring KRAS G12D mutant assessed as inhibition of cell proliferation incubated for 7 days by CellTiterGlo-3D proliferation assay
- Assay type: functional, cell-based
- Test Conditions: PANC-1, 168 h
pIC50 here is simply -log10 of the concentration when that concentration is written in mol/L.

Compound	pIC50
COc1cc2nc(C)nc(N[C@H](C)c3cc(N)cc(C(F)(F)F)c3)c2cc1O[C@H]1CCOC1	7.75
COc1cc2nc(C)nc(NC(C)c3cc(N)cc(C(F)(F)F)c3)c2cc1C1CCN(C(C)=O)CC1 (centres undefined)	7.64

Exercise: Please report the measured pIC50 for COc1cc2nc(C)nc(N[C@H](C)c3cc(N)cc(C(F)(F)F)c3)c2cc1C1CCN(C(=O)CCCCCC(=O)N[C@H](C(=O)N2C[C@H](O)C[C@H]2C(=O)N[C@@H](C)c2ccc(-c3scnc3C)cc2)C(C)(C)C)CC1
Key: 7.86

Exercise: State its pIC50: COc1cc2nc(C)nc(N[C@H](C)c3cc(N)cc(C(F)(F)F)c3)c2cc1C1CCN(C(=O)CCCCCC(=O)N[C@H](C(=O)N2C[C@@H](O)C[C@H]2C(=O)N[C@@H](C)c2ccc(-c3scnc3C)cc2)C(C)(C)C)CC1
Key: 6.73

====

- Measured On: von Hippel-Lindau disease tumor suppressor/Son of sevenless homolog 1 (Homo sapiens) (UniProt Q07889+P40337)
- Assay Explanation: PROTAC activity at VHL/SOS1 in human NCI-H358 cells assessed as induction of SOS1 protein degradation by measuring maximal efficacy at 2 to 2000 nM incubated for 24 hrs by Immunoblot analysis relative to control
- Type: cell-based
- Test Conditions: dose 2-2000 nM
Readout Name: Emax (%)

Known results for compounds:
Smiles Representation	Readout Name	Recorded Number
COc1cc2nc(C)nc(N[C@H](C)c3cc(N)cc(C(F)(F)F)c3)c2cc1C1CCN(C(=O)CCOCCC(=O)N[C@H](C(=O)N2C[C@H](O)C[C@H]2C(=O)N[C@@H](C)c2ccc(-c3scnc3C)cc2)C(C)(C)C)CC1	Emax	37.6
COc1cc2nc(C)nc(N[C@H](C)c3cc(N)cc(C(F)(F)F)c3)c2cc1C1CCN(C(=O)CCCCCCC(=O)N[C@H](C(=O)N2C[C@H](O)C[C@H]2C(=O)N[C@@H](C)c2ccc(-c3scnc3C)cc2)C(C)(C)C)CC1	Emax	39.7
COc1cc2nc(C)nc(N[C@H](C)c3cc(N)cc(C(F)(F)F)c3)c2cc1C1CCN(C(=O)CCCCCC(=O)N[C@H](C(=O)N2C[C@H](O)C[C@H]2C(=O)N[C@@H](C)c2ccc(-c3scnc3C)cc2)C(C)(C)C)CC1	Emax	100

I: COc1cc2nc(C)nc(N[C@H](C)c3cc(N)cc(C(F)(F)F)c3)c2cc1C1CCN(C(=O)CCCOCC(=O)N[C@H](C(=O)N2C[C@H](O)C[C@H]2C(=O)N[C@@H](C)c2ccc(-c3scnc3C)cc2)C(C)(C)C)CC1
II: COc1cc2nc(C)nc(N[C@H](C)c3cc(N)cc(C(F)(F)F)c3)c2cc1C1CCN(C(=O)COCCCC(=O)N[C@H](C(=O)N2C[C@H](O)C[C@H]2C(=O)N[C@@H](C)c2ccc(-c3scnc3C)cc2)C(C)(C)C)CC1
III: COc1cc2nc(C)nc(N[C@H](C)c3cc(N)cc(C(F)(F)F)c3)c2cc1C1CCN(CCCCCCC(=O)N[C@H](C(=O)N2C[C@H](O)C[C@H]2C(=O)N[C@@H](C)c2ccc(-c3scnc3C)cc2)C(C)(C)C)CC1
IV: COc1cc2nc(C)nc(N[C@H](C)c3cc(N)cc(C(F)(F)F)c3)c2cc1C1CCN(C(=O)CCCCC(=O)N[C@H](C(=O)N2C[C@H](O)C[C@H]2C(=O)N[C@@H](C)c2ccc(-c3scnc3C)cc2)C(C)(C)C)CC1
Exercise: // ranking: key=Emax, reverse=True Output spec: a listing of the labels in the requested order.
Key: II, IV, I, III
